Assay: gMDCK (P-gp knockout MDCK) monolayer permeability assay
Settings: dog, MDCK, pH 7.4
readout label: efflux ratio at 3 h

What measured efflux ratio at 3 h goes with Nc1cccc2c1CN(C1CCC(=O)NC1=O)C2=O (stereo not shown) [Lenalidomide] ? 0.62

====

Experiment: RepliGut human jejunal organoid-derived monolayer permeability assay
Details: human, pH 7.4, with elacridar + Ko143 (concentrations not given)
readout label: Papp A→B at 3 h

What measured Papp A→B at 3 h goes with Nc1cccc2c1CN(C1CCC(=O)NC1=O)C2=O (stereo not shown) [Lenalidomide] ? 5.2 nm/s

====

Assay: gMDCK (P-gp knockout MDCK) monolayer permeability assay
Conditions: dog, MDCK, pH 7.4, Lenalidomide Permeability in gMDCK Cells, typical assay conditions, 50 uM
readout label: Papp at 3 h, 50 µM (×10⁻⁶ cm/s)
Answers are plain numbers, in ×10⁻⁶ cm/s.

What measured Papp at 3 h, 50 µM goes with Nc1cccc2c1CN(C1CCC(=O)NC1=O)C2=O (stereo not shown) [Lenalidomide] ? 0.22

====

Assay: RepliGut human jejunal organoid-derived monolayer permeability assay
Settings: human, pH 7.4
readout label: Papp at 3 h, 500 µM (×10⁻⁶ cm/s)
One number for each entry, in ×10⁻⁶ cm/s.

What measured Papp at 3 h, 500 µM goes with Nc1cccc2c1CN(C1CCC(=O)NC1=O)C2=O (stereo not shown) [Lenalidomide] ? 0.58

====

Molecular target: P-gp (MDR1) (Homo sapiens)
Construct: expressed in transfected cells; host or cells: gMDCK (P-gp-knockout Madin-Darby Canine Kidney cells), puromycin selection
Sequence (P08183 whole entry): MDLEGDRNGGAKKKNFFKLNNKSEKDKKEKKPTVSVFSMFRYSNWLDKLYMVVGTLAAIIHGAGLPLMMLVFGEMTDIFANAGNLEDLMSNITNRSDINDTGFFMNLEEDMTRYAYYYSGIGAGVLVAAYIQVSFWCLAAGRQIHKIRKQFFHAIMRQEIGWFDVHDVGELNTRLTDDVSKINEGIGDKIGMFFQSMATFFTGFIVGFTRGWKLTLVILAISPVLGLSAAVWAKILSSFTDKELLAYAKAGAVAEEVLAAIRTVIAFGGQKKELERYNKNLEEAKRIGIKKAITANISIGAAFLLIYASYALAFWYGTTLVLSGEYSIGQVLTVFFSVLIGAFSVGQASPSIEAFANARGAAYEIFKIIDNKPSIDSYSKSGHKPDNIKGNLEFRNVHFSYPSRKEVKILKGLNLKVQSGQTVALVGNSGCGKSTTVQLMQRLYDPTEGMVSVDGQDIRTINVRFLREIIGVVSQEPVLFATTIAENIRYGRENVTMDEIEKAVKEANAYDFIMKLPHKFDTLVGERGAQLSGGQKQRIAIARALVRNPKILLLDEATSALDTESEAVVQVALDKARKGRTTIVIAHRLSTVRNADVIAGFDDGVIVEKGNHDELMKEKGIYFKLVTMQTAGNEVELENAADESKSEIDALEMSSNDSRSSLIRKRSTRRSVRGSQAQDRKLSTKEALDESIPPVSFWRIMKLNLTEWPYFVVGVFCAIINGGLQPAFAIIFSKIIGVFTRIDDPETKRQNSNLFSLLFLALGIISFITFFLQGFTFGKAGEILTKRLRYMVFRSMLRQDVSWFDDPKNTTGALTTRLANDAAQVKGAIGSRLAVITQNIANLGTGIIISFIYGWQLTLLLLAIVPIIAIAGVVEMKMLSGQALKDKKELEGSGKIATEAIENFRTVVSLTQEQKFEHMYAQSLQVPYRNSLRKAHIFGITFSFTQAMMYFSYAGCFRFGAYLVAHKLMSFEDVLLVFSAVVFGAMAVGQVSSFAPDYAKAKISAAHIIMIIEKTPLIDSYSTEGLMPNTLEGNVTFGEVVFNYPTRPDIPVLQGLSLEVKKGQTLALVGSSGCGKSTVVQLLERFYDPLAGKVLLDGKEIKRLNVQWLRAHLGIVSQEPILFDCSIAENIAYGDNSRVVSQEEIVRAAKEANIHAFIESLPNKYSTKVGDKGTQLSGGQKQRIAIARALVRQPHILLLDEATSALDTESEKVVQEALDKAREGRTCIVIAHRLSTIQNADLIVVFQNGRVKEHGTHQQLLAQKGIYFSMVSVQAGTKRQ
Assay: Bidirectional permeability in gMDCK cells overexpressing human P-gp (gMDCK-MDR1)
Format: in vitro ADME
Settings: human, MDCK-MDR1, pH 7.4; gMDCK-MDR1
readout label: Papp A→B at 3 h
State the result as a value with its unit after it.

Under P-gp (MDR1) (Homo sapiens): Papp A→B at 3 h value of Nc1cccc2c1CN(C1CCC(=O)NC1=O)C2=O (stereo not shown) [Lenalidomide] ? 0.2 ×10⁻⁶ cm/s

====

Assay: Lenalidomide pharmacokinetic study in rats (IV and oral)
Format: in vivo, Sprague Dawley rats
Settings: Sprague Dawley, rat, urine; male rats, 0.1 mg/kg PO; read-out: Urinary Recovery
readout label: dose excreted (%)
Numbers only, in %.

What measured dose excreted goes with Nc1cccc2c1CN(C1CCC(=O)NC1=O)C2=O (stereo not shown) [Lenalidomide] ? 47

====

Experiment: Lenalidomide pharmacokinetic study in rats (IV and oral)
Assay type: in vivo, Sprague Dawley rats
Conditions: Sprague Dawley, rat, plasma; male rats, 1 mg/kg IV
readout label: Cmax (µM)
Give bare numbers, in µM.

What measured Cmax goes with Nc1cccc2c1CN(C1CCC(=O)NC1=O)C2=O (stereo not shown) [Lenalidomide] ? 4.9

====

Experiment: Lenalidomide pharmacokinetic study in rats (IV and oral)
Type: in vivo, Sprague Dawley rats
Conditions: Sprague Dawley, rat, plasma; male rats, 0.1 mg/kg PO
readout label: Cmax (nM)
Numbers only, in nM.

What measured Cmax goes with Nc1cccc2c1CN(C1CCC(=O)NC1=O)C2=O (stereo not shown) [Lenalidomide] ? 200

====

Assay: gMDCK (P-gp knockout MDCK) monolayer permeability assay
Conditions: dog, MDCK, pH 7.4, gMDCK Papp, lenalidomide 500 µM; apical to basolateral; n=3 biological replicates
readout label: Papp at 3 h, 500 µM (×10⁻⁶ cm/s)
Numbers only, in ×10⁻⁶ cm/s.

What measured Papp at 3 h, 500 µM goes with Nc1cccc2c1CN(C1CCC(=O)NC1=O)C2=O (stereo not shown) [Lenalidomide] ? 0.21
